- METHOD_DESCRIPTION: Area under the curve determination of plasma levels in rats (rapid rat AUC)
- Type: in vivo
- CONDITION_LABEL: Table B, oral, 10 mg/kg, blood 0.5-6 h post-dosing, read-out: RR AUC

COMPOUND	AUC
COc1ccc2c(c1)C(=O)N(C[C@@]1(c3cc4c5c(ccc4o3)C3(CCC5)NC(=O)NC3=O)NC(=O)NC1=O)C2 (stereo partly shown)	0.055 µM·h
COc1ccc2c(c1)C(=O)N(C[C@@]1(c3cc4c5c(ccc4o3)C3(CC5)NC(=O)NC3=O)NC(=O)NC1=O)C2 (stereo partly shown)	0.321 µM·h
COc1ccc2c(c1)C(=O)N(C[C@@]1(c3cc4ccc5c(c4o3)CCC53NC(=O)NC3=O)NC(=O)NC1=O)C2 (stereo partly shown)	0.128 µM·h
COc1ccc2c(c1F)C(=O)N(C[C@@]1(c3cc4c5c(ccc4o3)C3(CC5)NC(=O)NC3=O)NC(=O)NC1=O)C2 (stereo partly shown)	1.6 µM·h
